# Tested on: MCF7
# Assay method text: Antiproliferative activity against human MCF7 cells assessed as growth inhibition after 48 hrs by sulforhodamine B assay
# Type: functional, cell-based
# Measurement setup: MCF7, 48 h
pIC50: −log10 of the molar value.
// values below are reported pIC50
Assay metric: pIC50

[[record]]
smiles_str = "C/C=C(\\C)C(=O)N[C@@H](c1ccccc1)[C@@H](O)C(=O)O[C@H]1C[C@@]2(O)[C@@H](OC(=O)c3ccccc3)[C@@H]3[C@]4(OC(C)=O)CO[C@@H]4C[C@H](O)[C@@]3(C)C(=O)[C@H](OC(C)=O)C(=C1C)C2(C)C"
assay_metric = "pIC50"
bound_operator = "="
recorded_number = 8.40

[[record]]
smiles_str = "C/C=C(\\C)C(=O)N[C@@H](c1ccccc1)[C@@H](O)C(=O)O[C@H]1C[C@@]2(O)[C@@H](OC(=O)c3ccccc3)[C@@H]3[C@]4(OC(C)=O)CO[C@@H]4C[C@H](O[C@@H]4OC[C@@H](O)[C@H](O)[C@H]4O)[C@@]3(C)C(=O)[C@H](O)C(=C1C)C2(C)C"
assay_metric = "pIC50"
bound_operator = "="
recorded_number = 6.85

[[record]]
smiles_str = "CC(=O)O[C@@]12CO[C@@H]1C[C@H](O[C@@H]1OC[C@@H](O)[C@H](O)[C@H]1O)[C@@]1(C)C(=O)[C@H](O)C3=C(C)[C@@H](OC(=O)[C@H](O)[C@@H](NC(=O)c4ccccc4)c4ccccc4)C[C@@](O)([C@@H](OC(=O)c4ccccc4)[C@H]21)C3(C)C"
assay_metric = "pIC50"
bound_operator = "="
recorded_number = 6.10

[[record]]
smiles_str = "C/C=C(\\C)C(=O)N[C@@H](c1ccccc1)[C@@H](O)C(=O)O[C@H]1C[C@@]2(O)[C@@H](OC(=O)c3ccccc3)[C@@H]3[C@]4(OC(C)=O)CO[C@@H]4C[C@H](O[C@@H]4OC[C@@H](O)[C@H](O)[C@H]4O)[C@@]3(C)C(=O)[C@H](OC(C)=O)C(=C1C)C2(C)C"
assay_metric = "pIC50"
bound_operator = "="
recorded_number = 7.54

[[record]]
smiles_str = "CC(=O)O[C@H]1C(=O)[C@@]2(C)[C@H]([C@H](OC(=O)c3ccccc3)[C@]3(O)C[C@H](OC(=O)[C@H](O)[C@@H](NC(=O)OC(C)(C)C)c4ccccc4)C(C)=C1C3(C)C)[C@]1(OC(C)=O)CO[C@@H]1C[C@@H]2O"
assay_metric = "pIC50"
bound_operator = ">"
recorded_number = 8.70

[[record]]
smiles_str = "C=C1[C@@H](OC(=O)C[C@H](c2ccccc2)N(C)C)C[C@H](OC(C)=O)[C@]2(C)[C@@H]1C[C@@H]1C[C@H](OC(C)=O)C(C)=C([C@@H](OC(C)=O)[C@@H]2OC(C)=O)C1(C)C"
assay_metric = "pIC50"
bound_operator = "="
recorded_number = 7.40


###

# Test system: MCF7
# Assay method text: Antiproliferative activity against human MCF7 cells assessed as growth inhibition after 48 hrs by sulforhodamine B assay
# Assay type: functional, cell-based
# Measurement setup: MCF7, 48 h
// values below are reported IC50
Assay metric: IC50

[[record]]
smiles_str = "C=C1[C@@H](O[C@@H]2O[C@H](CO)[C@@H](O)[C@H](O)[C@H]2O)C[C@H](OC(C)=O)[C@]2(C)[C@@H]1C[C@@H]1C[C@H](O)C(C)=C([C@@H](OC(C)=O)[C@@H]2OC(C)=O)C1(C)C"
system_under_test = "MCF7"
assay_metric = "IC50"
result = "> 25 µM"

[[record]]
smiles_str = "C=C1[C@@H](OC(=O)/C=C/c2ccccc2)C[C@H](OC(C)=O)[C@]2(C)[C@@H]1C[C@@H]1C[C@H](OC(C)=O)C(C)=C([C@@H](OC(C)=O)[C@@H]2OC(C)=O)C1(C)C"
system_under_test = "MCF7"
assay_metric = "IC50"
result = "> 25 µM"

[[record]]
smiles_str = "CCCCCC(=O)N[C@@H](c1ccccc1)[C@@H](O)C(=O)O[C@H]1C[C@@]2(O)[C@@H](OC(=O)c3ccccc3)[C@@H]3[C@]4(OC(C)=O)CO[C@@H]4C[C@H](O[C@@H]4OC[C@@H](O)[C@H](O)[C@H]4O)[C@@]3(C)C(=O)[C@H](O)C(=C1C)C2(C)C"
system_under_test = "MCF7"
assay_metric = "IC50"
result = "> 25 µM"

[[record]]
smiles_str = "CC(=O)O[C@@]12CO[C@@H]1C[C@@H](O)[C@@]1(C)C(=O)[C@H](O)C3=C(C)[C@@H](OC(=O)[C@H](O)[C@@H](NC(=O)c4ccccc4)c4ccccc4)C[C@@](O)([C@@H](OC(=O)c4ccccc4)[C@H]21)C3(C)C"
system_under_test = "MCF7"
assay_metric = "IC50"
result = "0.012 µM"


###

// values below are reported IC50
# Test system: MCF7
# Assay method text: Antiproliferative activity against human MCF7 cells assessed as growth inhibition after 48 hrs by sulforhodamine B assay
# Assay type: functional, cell-based
# Measurement setup: MCF7, 48 h
Assay metric: IC50 (µM)

[[record]]
compound = "CC(=O)O[C@@]12CO[C@@H]1C[C@H](O)[C@@]1(C)C(=O)[C@H](O)C3=C(C)[C@@H](O)C[C@@](O)([C@@H](OC(=O)c4ccccc4)[C@H]21)C3(C)C"
value_units = "µM"
bound_operator = "="
recorded_number = 17

[[record]]
compound = "CC(=O)O[C@H]1C(=O)[C@@]2(C)[C@H]([C@H](OC(=O)c3ccccc3)[C@]3(O)C[C@H](O)C(C)=C1C3(C)C)[C@]1(OC(C)=O)CO[C@@H]1C[C@@H]2O [BACCATIN III]"
value_units = "µM"
bound_operator = "="
recorded_number = 7.4

[[record]]
compound = "CC(=O)O[C@H]1C(=O)[C@]2(C)[C@@H](O[C@@H]3OC[C@@H](O)[C@H](O)[C@H]3O)C[C@H]3OC[C@@]3(OC(C)=O)[C@H]2[C@H](OC(=O)c2ccccc2)[C@]2(O)C[C@H](OC(=O)[C@H](O)[C@@H](NC(=O)c3ccccc3)c3ccccc3)C(C)=C1C2(C)C"
value_units = "µM"
bound_operator = "="
recorded_number = 0.16

[[record]]
compound = "C=C1[C@@H](O)C[C@H](OC(C)=O)[C@@]2(COC(=O)c3ccccc3)[C@@H](OC(C)=O)[C@H](OC(C)=O)[C@@]3(O)[C@]4(C)OC[C@]3(C)C(CC4=O)[C@@H](OC(C)=O)[C@H]12 [TAXININE M]"
value_units = "µM"
bound_operator = ">"
recorded_number = 25


###

// values below are reported IC50
# Assay method text: Antiproliferative activity against mouse NIH/3T3 cells assessed as growth inhibition after 48 hrs by sulforhodamine B assay
# Assay type: cell-based
# Measurement setup: NIH3T3, 48 h
Assay metric: IC50

[[record]]
compound = "CC(=O)O[C@@]12CO[C@@H]1C[C@@H](O)[C@@]1(C)C(=O)[C@H](O)C3=C(C)[C@@H](OC(=O)[C@H](O)[C@@H](NC(=O)c4ccccc4)c4ccccc4)C[C@@](O)([C@@H](OC(=O)c4ccccc4)[C@H]21)C3(C)C"
result = "2.2 µM"

[[record]]
compound = "CC(=O)O[C@H]1C(=O)[C@]2(C)[C@@H](O[C@@H]3OC[C@@H](O)[C@H](O)[C@H]3O)C[C@H]3OC[C@@]3(OC(C)=O)[C@H]2[C@H](OC(=O)c2ccccc2)[C@]2(O)C[C@H](OC(=O)[C@H](O)[C@@H](NC(=O)c3ccccc3)c3ccccc3)C(C)=C1C2(C)C"
result = "> 25 µM"

[[record]]
compound = "C/C=C(\\C)C(=O)N[C@@H](c1ccccc1)[C@@H](O)C(=O)O[C@H]1C[C@@]2(O)[C@@H](OC(=O)c3ccccc3)[C@@H]3[C@]4(OC(C)=O)CO[C@@H]4C[C@H](O[C@@H]4OC[C@@H](O)[C@H](O)[C@H]4O)[C@@]3(C)C(=O)[C@H](OC(C)=O)C(=C1C)C2(C)C"
result = "> 25 µM"

[[record]]
compound = "CC(=O)O[C@H]1C(=O)[C@@]2(C)[C@H]([C@H](OC(=O)c3ccccc3)[C@]3(O)C[C@H](O)C(C)=C1C3(C)C)[C@]1(OC(C)=O)CO[C@@H]1C[C@@H]2O [BACCATIN III]"
result = "> 25 µM"

[[record]]
compound = "C=C1[C@@H](O[C@@H]2O[C@H](CO)[C@@H](O)[C@H](O)[C@H]2O)C[C@H](OC(C)=O)[C@]2(C)[C@@H]1C[C@@H]1C[C@H](O)C(C)=C([C@@H](OC(C)=O)[C@@H]2OC(C)=O)C1(C)C"
result = "> 25 µM"

[[record]]
compound = "CCCCCC(=O)N[C@@H](c1ccccc1)[C@@H](O)C(=O)O[C@H]1C[C@@]2(O)[C@@H](OC(=O)c3ccccc3)[C@@H]3[C@]4(OC(C)=O)CO[C@@H]4C[C@H](O[C@@H]4OC[C@@H](O)[C@H](O)[C@H]4O)[C@@]3(C)C(=O)[C@H](O)C(=C1C)C2(C)C"
result = "> 25 µM"

[[record]]
compound = "CC(=O)O[C@H]1C(=O)[C@@]2(C)[C@H]([C@H](OC(=O)c3ccccc3)[C@]3(O)C[C@H](OC(=O)[C@H](O)[C@@H](NC(=O)c4ccccc4)c4ccccc4)C(C)=C1C3(C)C)[C@]1(OC(C)=O)CO[C@@H]1C[C@@H]2O [PACLITAXEL]"
result = "0.58 µM"

